Task for the reader: assign each of the following molecules its reported growth.
tested on: EKVX NSCLC; assay: NCI-60 one-dose screen, 48 h (100 = growth as untreated, 0 = no growth, -100 = all killed); details: 10 µM unless noted
This is part of a sample that, as a whole, favours compounds with a hit. Of some 83,000 tested, about 20% had one in any assay.
A number alone suffices; assume %.

Enquiry: # growth lookup, item CCCCN1CCN(c2ccc3nc(-c4ccc5nc(-c6cc(OC)c(OC)c(OC)c6)[nH]c5c4)[nH]c3c2)CC1
Return: 106

Enquiry: # growth lookup, item O=C(NCCOCCOCCOCCNC(=O)c1cc2c(o1)C(=O)c1ccccc1C2=O)NC12CC3CC(CC(C3)C1)C2
Return: -4.03

Enquiry: # growth lookup, item COc1ccc(C2CC(c3cnccn3)=NN2)cc1OC (stereo not drawn)
Return: 108

Enquiry: # growth lookup, item CCOc1ccc2nc(-c3cccc(OCC(=O)NC(C)C)c3)nc(Nc3ccc(-c4cn[nH]c4)cc3)c2c1
Return: 9.24

Enquiry: # growth lookup, item COc1cc2c(cc1OC)-c1ccc3cc4c(cc3c1N(CCN1CCCC1)C2)OCO4
Return: 36.3

Enquiry: # growth lookup, item C=C(C)[C@@H]1CC[C@@]2(C(=O)O)CC[C@]3(C)C(CCC4[C@@]5(C)CCC(OS(=O)(=O)c6ccccc6)C(C)(C)C5CC[C@]43C)C12 (stereo partly drawn)
Return: 25.4

Enquiry: # growth lookup, item COc1cc2nc(Nc3ccc(F)cc3)nc(N)c2cc1OC
Return: 106

Enquiry: # growth lookup, item C=CCO[C@H]1CO[C@H]2[C@@H]1OC[C@@H]2Oc1ccc(Nc2ccnc(Nc3ccc(O[C@H]4CO[C@H]5[C@@H]4OC[C@@H]5OCC=C)c(Cl)c3)n2)cc1Cl
Return: -71
